Measured target: human carboanhydrase II (Homo sapiens)
Experimental details: Carboanhydrase inhibition, photometric, nitrophenyl acetate conversion (CA II)
Format: biochemical
Condition notes: human carboanhydrase II; read-out: CA II IC50
Test readout: IC50 (nM)
Give the quantity in nM, number only.

• C[C@]12CC[C@@H]3c4ccc(O)cc4CC[C@H]3[C@@H]1CC[C@@H]2OC(=O)c1ccc(S(N)(=O)=O)nc1 = 31
• C[C@]12CC[C@@H]3c4ccc(O)cc4CC[C@H]3[C@@H]1CC[C@@H]2OC(=O)c1cncc(S(N)(=O)=O)c1 = 160
• CCc1sc(S(N)(=O)=O)cc1C(=O)O[C@H]1CC[C@H]2[C@@H]3CCc4cc(O)ccc4[C@H]3CC[C@]12C = 42
• C[C@]12CC[C@@H]3c4ccc(O)cc4CC[C@H]3[C@@H]1CC[C@@H]2OC(=O)c1cc(S(N)(=O)=O)sc1Br = 47

Entry C[C@]12CC[C@@H]3c4ccc(OS(N)(=O)=O)cc4CC[C@H]3[C@@H]1CC[C@@H]2O [Oestradiol 3-sulphamate, reference compound] , IC50 reported as 34

###

Experimental details: Blood-plasma concentration ratio in heparinized rat blood
Test readout: blood plasma ratio
When you answer, write just the number.

• C[C@]12CC[C@H]3[C@@H](CCC4=CC(=O)CC[C@@]43C)[C@@H]1CC[C@@H]2OC(=O)c1cncc(S(N)(=O)=O)c1 = 5.7

Turning now to a further record.
So, `C[C@]12CC[C@H]3[C@@H](CCC4=CC(=O)CC[C@@]43C)[C@@H]1CC[C@@H]2OC(=O)c1ccc(S(N)(=O)=O)nc1` ? Its blood plasma ratio was 3.6

###

Measured target: human carboanhydrase I (Homo sapiens)
Sequence (P00915 whole entry): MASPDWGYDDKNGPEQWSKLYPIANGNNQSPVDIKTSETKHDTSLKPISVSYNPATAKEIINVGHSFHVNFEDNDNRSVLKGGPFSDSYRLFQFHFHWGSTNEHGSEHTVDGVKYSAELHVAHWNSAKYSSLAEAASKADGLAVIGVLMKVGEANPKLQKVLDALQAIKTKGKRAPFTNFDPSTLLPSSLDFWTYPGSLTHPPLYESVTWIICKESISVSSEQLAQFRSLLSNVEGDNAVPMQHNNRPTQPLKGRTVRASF
Experimental details: Carboanhydrase inhibition, photometric, nitrophenyl acetate conversion (CA I)
Assay type: biochemical
Condition notes: human carboanhydrase I; read-out: CA I IC50
Output YES for records whose IC50 is lower than 3000 nM, NO for records at or above 3000 nM.

Before answering, review these 2 worked examples.
• C[C@]12CC[C@@H]3c4ccc(OS(N)(=O)=O)cc4CC[C@H]3[C@@H]1CC[C@@H]2O [Oestradiol 3-sulphamate, reference compound] = YES
• C[C@]12CC[C@@H]3c4ccc(O)cc4CC[C@H]3[C@@H]1CC[C@@H]2OC(=O)c1cncc(S(N)(=O)=O)c1 = YES

Confirm or reject: IC50 of `C[C@]12CC[C@@H]3c4ccc(O)cc4CC[C@H]3[C@@H]1CC[C@@H]2OC(=O)c1ccc(S(N)(=O)=O)nc1` lies strictly below 3000 nM
YES

Please determine if `CCc1sc(S(N)(=O)=O)cc1C(=O)O[C@H]1CC[C@H]2[C@@H]3CCc4cc(O)ccc4[C@H]3CC[C@]12C` is below 3000 nM in terms of IC50.
NO

Is it true that IC50 reported for `C[C@]12CC[C@@H]3c4ccc(O)cc4CC[C@H]3[C@@H]1CC[C@@H]2OC(=O)c1cc(S(N)(=O)=O)sc1Br` is less than 3000 nM?
NO
